Tested on: AML cell line OCI-AML3
Assay: Cell viability (CellTiterGlo, 3 days), single agents and combination, in OCI-AML3
Assay type: cell-based
Conditions: Homo sapiens, OCI-AML-3, 72 h; OCI-AML3, single agent, 3 days incubation, CTG signal
pIC50: −log10 of the molar value.
MEASURED_QUANTITY: pIC50

[[record]]
molecule = "Nc1ncn([C@@H]2O[C@H](CO)[C@@H](O)[C@H]2O)c(=O)n1 [5-azacitidine, azacitidine]"
measured = 5.15

[[record]]
molecule = "Cc1c(N(C(=O)c2cc(-c3cc(Cl)ccc3C(=O)N3Cc4ccccc4C[C@H]3CN3CCOCC3)n(C)c2C)c2ccc(O)cc2)cc(C#N)n1C [Compound A]"
measured = 5.24

